# System: CEM cells HIV-1 protection, formazan growth assay
# experiment_notes: NCI AIDS Antiviral Assay;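 active means compounds giving half or more protection of infected cells from virus-caused growth loss, again on retest; inactive means the rest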
# Experimental: The ability of compounds to protect human CEM cells from HIV-1 infection is measured as a screen for new compounds capable of inhibiting the HIV virus. Five concentrations of drug were tested on uninfected and infected cells and cell growth was measured using a soluble formazan assay. […] Compounds that provided at least 50% protection were retested. Compounds that provided at least 50% protection on retest were listed as moderately active. […]
// classify into 1 = active, 0 = inactive

Hey, what did the test say about CC(=O)c1sc2c(c1OC(=O)c1ccccc1)c(=O)n(-c1ccccc1)c(=S)n2-c1ccccc1 ?
0

Hey, what did the test say about CCOC(=O)CCC(NC(=O)c1ccc(N=Cc2nc3cc(C(F)(F)F)ccc3nc2-c2ccccc2)cc1)C(=O)OCC (configuration not stated) ?
0

Hey, what did the test say about S=C(NCCNC(=S)SSC(=S)NNc1ccccc1)SSC(=S)NNc1ccccc1 ?
0

Hey, what did the test say about O=S1c2ccccc2NC(c2ccc3ccccc3c2)CC1c1ccccc1 (configuration not stated) ?
0

Hey, what did the test say about COc1nc2c(c(=O)n1C)N[C@@H]1[C@@H](O)[C@H](O)CO[C@@H]1N2 ?
0

Hey, what did the test say about COC(=O)C1(C)C=C(Nc2ccccc2)C(=O)N1c1ccccc1 (configuration not stated) ?
0

Hey, what did the test say about O=C1c2ccccc2CC12Cc1ccc3c(c1C2=O)CCCC3 (configuration not stated) ?
0

Hey, what did the test say about CC(C)(C)c1cc2c3c(c1)C(C(F)(F)F)(C(F)(F)F)O[Te]3(C)OC2(C(F)(F)F)C(F)(F)F ?
0

Hey, what did the test say about Nc1sccc1S(=O)(=O)c1ccsc1N ?
0

Hey, what did the test say about Nc1nc(Cl)cc(NCC2(CO)CCC2)n1 ?
0

Hey, what did the test say about C1=C(c2ccccc2)N2CCCNC2(c2ccccc2)CS1 (configuration not stated) ?
0

Hey, what did the test say about CCOC(=O)C(CCC1OCCO1)C(C)=O (configuration not stated) ?
0

Hey, what did the test say about CC(C)Oc1c(-c2ccc(F)cc2)c(O)c2c3c1oc(=O)n3C=CC2C (configuration not stated) ?
1

Hey, what did the test say about O=C1OC(Cl)C(N=P(c2ccccc2)(c2ccccc2)c2ccccc2)=C1Cl (configuration not stated) ?
0

Hey, what did the test say about Cc1ccc(S(=O)(=O)OCC2CC[C@]3(C)C4CCC5(C)C(CCC5[C@H](C)CCC(=O)O)[C@@H]4CC[C@@H]3C2)cc1 (some centres not stated) ?
0

Hey, what did the test say about Cn1c(=O)c2c(nc3n2CCCC(=O)N3CC(O)CCl)n(C)c1=O (configuration not stated) ?
0

Hey, what did the test say about COc1ccc(C(=O)Oc2c(C#N)sc3c2c(=O)n(-c2ccccc2)c(=S)n3-c2ccccc2)cc1 ?
0

Hey, what did the test say about Brc1ccc2[nH]c3nc(N/N=C/c4cccnc4)nnc3c2c1 ?
0

Hey, what did the test say about Fc1ccc(Nc2nc(Cl)c3[nH]cnc3n2)cc1Cl ?
0

Hey, what did the test say about OCC(O)C(O)C(O)C(O)c1nc2ccccc2s1 (configuration not stated) ?
0

Hey, what did the test say about CCOP(=O)(OCC)/C(C#N)=C/c1ccc[nH]1 ?
0

Hey, what did the test say about O=S1(c2ccccc2)=NC(Nc2ccccc2)=Nc2ccccc21 (configuration not stated) ?
0

Hey, what did the test say about O=[N+]([O-])c1ccc2[nH]c(=S)n(/C=C(/c3ccc(Cl)cc3)S(=O)(=O)Cc3ccc(Cl)cc3)c2c1 ?
0

Hey, what did the test say about Cc1oc2c(C)c3oc(=O)cc(C)c3cc2c1CCl ?
0

Hey, what did the test say about c1cc2nnsc2s1 ?
0

Hey, what did the test say about CCOC(=O)/C(=C/c1ccco1)C(=O)c1ccccc1 ?
0

Hey, what did the test say about O=C1N[C@H]2CCCC[C@@H]2C(=O)N1OS(=O)(=O)c1ccccc1 ?
0

Hey, what did the test say about N#C/C(=C/N1CCNC1=S)C(N)=O ?
0

Hey, what did the test say about COC(OC)C(=O)[C@H]1[C@H](C(=O)OCC2OC(n3cc(C)c(=O)[nH]c3=O)CC2N=[N+]=[N-])C[C@H]2[C@@H]3CCC4=CC(=O)C=C[C@]4(C)[C@H]3[C@@H](O)C[C@@]21C (some centres not stated) ?
1

Hey, what did the test say about O=C(CCc1nc(=S)[nH][nH]1)Nc1cccc(C(F)(F)F)c1 ?
0

Hey, what did the test say about Cc1cc(NC(=O)Nc2ccc(F)cc2)no1 ?
0

Hey, what did the test say about CCOC(=O)/C=C/n1c2ccccc2c(=O)c2ccccc21 ?
0

Hey, what did the test say about CC(C)c1nsc2c1C(=O)NC(C(C)(C)C)N2 (configuration not stated) ?
0

Hey, what did the test say about CC1=C(C(=O)Nc2ccccc2C)C(c2ccc([N+](=O)[O-])cc2)C(C(=O)Nc2ccccc2C)=C(C)N1 ?
0

Hey, what did the test say about CCCCCCCCCCCCCCCCNC(=O)/C(=C\c1ccc(Cl)c(Cl)c1)NC(=O)c1ccccc1 ?
0

Hey, what did the test say about Nc1ncnc2c1ncn2C1OC(CO)(C(F)(F)F)C(O)C1O (configuration not stated) ?
0

Hey, what did the test say about CN(NC(=O)/C(=C\c1ccco1)NC(=O)c1ccccc1)c1cn[nH]c(=O)c1Cl ?
0

Hey, what did the test say about CSC(SC)(C(=O)O)c1cc(-c2c(Cl)cccc2Cl)no1 ?
0

Hey, what did the test say about Cc1nc(Nc2ccccc2)sc1C(=O)NNc1ccc([N+](=O)[O-])cc1[N+](=O)[O-] ?
0

Hey, what did the test say about CC1=CC(=O)c2c(C=O)c(O)c(O)c(C(C)C)c2C1=O ?
0

Hey, what did the test say about COCc1c(C(=O)NCCO)[n+](=O)c2ccccc2n1[O-] ?
0

Hey, what did the test say about Cc1ccc(NC(=O)c2cc3c(cc2Cl)Sc2nccn2S3(=O)=O)cc1 ?
0
